Tested on: Colorado potato beetle (Leptinotarsa decemlineata [Say])
Experiment: Foliar leaf-dip test against adult Colorado potato beetle on tomato plants
Assay type: in vivo
Details: cyano-pyrethroid 1.0 ppm alone (bifenthrin 0 ppm); technical; 72 h
METRIC NAME: % Mortality Adult Colorado Potato Beetle (%)
Give the value, in units of %, as a plain number.

% Mortality Adult Colorado Potato Beetle reported for this compound CC1(C)C(C=C(Cl)Cl)C1C(=O)OC(C#N)c1cccc(Oc2ccccc2)c1 (racemic) [alpha-cypermethrin] : 70

---

System: twospotted spider mite (Tetranychus urticae [Koch])
Assay: Foliar leaf-dip test against twospotted spider mite on pinto bean plants
Assay type: in vivo
Details: cyano-pyrethroid 10.0 ppm alone (bifenthrin 0 ppm); technical; 96 h
Entries and their % Mortality Twospotted Spider Mite values follow.
Give your result in % as a bare value.

// known answers, use as guide
- COMPOUND: "CC1(C)C(C=C(Cl)Cl)C1C(=O)OC(C#N)c1ccc(F)c(Oc2ccccc2)c1 (racemic)"
  TARGET OF ASSAY: "twospotted spider mite (Tetranychus urticae [Koch])"
  % Mortality Twospotted Spider Mite (%): 14
- COMPOUND: "CC1(C)[C@H](C(=O)O[C@H](C#N)c2cccc(Oc3ccccc3)c2)[C@@H]1/C=C(\\Cl)C(F)(F)F (racemic)"
  TARGET OF ASSAY: "twospotted spider mite (Tetranychus urticae [Koch])"
  % Mortality Twospotted Spider Mite (%): 16
- COMPOUND: "CC(C)[C@H](C(=O)O[C@H](C#N)c1cccc(Oc2ccccc2)c1)c1ccc(Cl)cc1 [esfenvalerate]"
  TARGET OF ASSAY: "twospotted spider mite (Tetranychus urticae [Koch])"
  % Mortality Twospotted Spider Mite (%): 21
- COMPOUND: "CC1(C)[C@H](C(=O)O[C@H](C#N)c2cccc(Oc3ccccc3)c2)[C@@H]1C=C(Br)Br"
  TARGET OF ASSAY: "twospotted spider mite (Tetranychus urticae [Koch])"
  % Mortality Twospotted Spider Mite (%): 3

We next turn to a different compound, shown below.
The measured % Mortality Twospotted Spider Mite associated with CC1(C)C(C=C(Cl)Cl)C1C(=O)OC(C#N)c1cccc(Oc2ccccc2)c1 (racemic) reads 8

---

Tested on: Colorado potato beetle (Leptinotarsa decemlineata [Say])
Experiment: Foliar leaf-dip test against adult Colorado potato beetle on tomato plants
Assay type: in vivo
Settings: cyano-pyrethroid 10.0 ppm alone (bifenthrin 0 ppm); technical; 72 h
Description: Candidate insecticide compositions were evaluated for activity in foliar evaluations against tobacco budworm (Heliothis virescens [Fabricius]), Colorado potato beetle (Leptinotarsa decemlineata [Say]), corn earworm (Helicoverpa zea [Boddie]), cotton aphid (Aphis gossypii [Glover]) and twospotted spider mite (Tetranychus urticae [Koch]). Each test included controls in which the formulation or test solution minus the active ingredients were applied. […]
METRIC NAME: % Mortality Adult Colorado Potato Beetle (%)
# value in %; strip the unit string

- COMPOUND: "CC1(C)[C@H](C(=O)O[C@H](C#N)c2cccc(Oc3ccccc3)c2)[C@@H]1C=C(Br)Br [delta-methrin]"
  % Mortality Adult Colorado Potato Beetle / %: 100
- COMPOUND: "CC1(C)C(C=C(Cl)Cl)C1C(=O)OC(C#N)c1cccc(Oc2ccccc2)c1 (racemic) [alpha-cypermethrin]"
  % Mortality Adult Colorado Potato Beetle / %: 100

Looking up CC1(C)C(C=C(Cl)Cl)C1C(=O)OC(C#N)c1ccc(F)c(Oc2ccccc2)c1 (racemic) [cyfluthrin] , I see its % Mortality Adult Colorado Potato Beetle listed as 100

Query CC(C)[C@H](C(=O)O[C@H](C#N)c1cccc(Oc2ccccc2)c1)c1ccc(Cl)cc1 [esfenvalerate] yields % Mortality Adult Colorado Potato Beetle of 95

Recorded % Mortality Adult Colorado Potato Beetle (compound CC1(C)[C@H](C(=O)O[C@H](C#N)c2cccc(Oc3ccccc3)c2)[C@@H]1/C=C(\Cl)C(F)(F)F (racemic) [lambda-cyhalothrin] ): 100

---

Test system: Colorado potato beetle (Leptinotarsa decemlineata [Say])
Assay: Foliar leaf-dip test against adult Colorado potato beetle on tomato plants
Format: in vivo
Conditions: cyano-pyrethroid 1.0 ppm alone (bifenthrin 0 ppm); technical; 72 h
Measured % Mortality Adult Colorado Potato Beetle, listed per entry.
Answer format: numeric, % implied, no suffix.

A selection of reference data follows.
- COMPOUND: "CC(C)[C@H](C(=O)O[C@H](C#N)c1cccc(Oc2ccccc2)c1)c1ccc(Cl)cc1 [esfenvalerate]"
  METRIC NAME: "% Mortality Adult Colorado Potato Beetle"
  VALUE MEASURED: 0
- COMPOUND: "CC1(C)[C@H](C(=O)O[C@H](C#N)c2cccc(Oc3ccccc3)c2)[C@@H]1/C=C(\\Cl)C(F)(F)F (racemic)"
  METRIC NAME: "% Mortality Adult Colorado Potato Beetle"
  VALUE MEASURED: 100
- COMPOUND: "CC1(C)[C@H](C(=O)O[C@H](C#N)c2cccc(Oc3ccccc3)c2)[C@@H]1C=C(Br)Br"
  METRIC NAME: "% Mortality Adult Colorado Potato Beetle"
  VALUE MEASURED: 30

Switching to the query record.
compound CC1(C)C(C=C(Cl)Cl)C1C(=O)OC(C#N)c1ccc(F)c(Oc2ccccc2)c1 (racemic) , % Mortality Adult Colorado Potato Beetle observed: 70
